From: patent US20170071901A1

# assay summary: physchem
# condition context: 0.1 M phosphate buffer, pH 7.4
measurement kind: half-life at 25 μM

Task: // lookup half-life at 25 μM for COc1cc(/C=C/C(=O)CC(=O)/C=C/c2ccc(O)c(OC)c2)ccc1O
Output: < 10 min
